# Test system: SK-MEL-2 melanoma
# protocol-summary: NCI-60 one-dose screen, 48 h
# condition: 10 µM unless noted
About 83,000 compounds went through this panel and 20% of them were active in at least one assay; those are over-represented in the sample as a whole. Activity calls are given as the source filed them. Rule for the calls: active = growth percent below 10; inactive = the rest.
Labels: active, inactive

1. COCCOc1cc2ncnc(N3CCN(c4cc(S(C)(=O)=O)c(C)cc4Cl)CC3)c2cc1OCCOC | inactive
2. N#Cc1nc(-c2ccc(F)cc2)oc1S(=O)(=O)N1CCOCC1 | inactive
3. NC(=O)c1cc(I)ccc1NC(=O)/C=C/c1ccccc1 | active
4. COC(=O)c1nc(-c2ccccc2)oc1S(=O)(=O)Cc1ccccc1 | inactive
5. CNC(=O)c1ccccc1Oc1nc(Nc2cc(OC)c(OC)c(OC)c2)ncc1Br | active
6. CCCCC1=C(P(=O)(O)O)N[C@H](C(=O)O)CS1 | inactive
7. O=C1C(=O)N(Cc2ccc(-c3ccccc3)cc2)c2ccc(OC(F)(F)F)cc21 | inactive
8. O=C(Nc1ccc(Oc2cccc(Cl)c2)c(Cl)c1)c1cccnc1 | inactive
9. COc1ccc(Nc2nc(-c3cc(O)c(C)c(C)c3O)cs2)cc1 | inactive
10. CC(=O)N1N=C(c2ccc(C(F)(F)F)c(F)c2)CC1c1[nH]c(C)c(C(=O)NCC(F)(F)F)c1C (stereo not given) | inactive
